We begin with a simple list: items and their reported %-inhibition of SRM.
system: panel of more than 300 wild-type and mutant kinases (313 kinase panel); assay: Kinase profiling in a biochemical assay panel (mobility shift assays and ELISA), %-inhibition at 1 μM; selectivity entropy; conditions: kinase SRM; 1 μM
Lab book: enter the figure in %, no units written.

As a guide, the following entries are already answered.
So what does the record say about %-inhibition of SRM for "CO[C@H]1C[C@@H]2CC[C@@H](C)[C@@](O)(O2)C(=O)C(=O)N2CCCC[C@H]2C(=O)O[C@H]([C@H](C)C[C@@H]2CC[C@@H](OC(=O)C(C)(CO)CO)[C@H](OC)C2)CC(=O)[C@H](C)/C=C(\C)[C@@H](O)[C@@H](OC)C(=O)[C@H](C)C[C@H](C)/C=C/C=C/C=C/1C" ?
-4

What would you report for "CO[C@H]1C[C@@H]2CC[C@@H](C)[C@@](O)(O2)C(=O)C(=O)N2CCCC[C@H]2C(=O)O[C@H]([C@H](C)C[C@@H]2CC[C@@H](OCCO)[C@H](OC)C2)CC(=O)[C@H](C)/C=C(\C)[C@@H](O)[C@@H](OC)C(=O)[C@H](C)C[C@H](C)/C=C/C=C/C=C/1C" ?
0.151

What would you report for "CCCS(=O)(=O)Nc1ccc(F)c(C(=O)c2c[nH]c3ncc(-c4ccc(Cl)cc4)cc23)c1F" ?
102

What would you report for "CNC(=O)c1cc(Oc2ccc(NC(=O)Nc3ccc(Cl)c(C(F)(F)F)c3)c(F)c2)ccn1" ?
66

What would you report for COc1cc2nccc(Oc3ccc(NC(=O)C4(C(=O)Nc5ccc(F)cc5)CC4)cc3)c2cc1OC [cabozantinib] ?
99

What would you report for "CC(=O)Nc1cccc(-n2c(=O)n(C3CC3)c(=O)c3c(Nc4ccc(I)cc4F)n(C)c(=O)c(C)c32)c1" ?
-4

Next item in the queue.
So what does the record say about %-inhibition of SRM for "CC(C)(C)c1nc(-c2cccc(NS(=O)(=O)c3c(F)cccc3F)c2F)c(-c2ccnc(N)n2)s1" ?
100

Where these numbers come from: paper PMC3961306
